Target: UniProt Q99685
Sequence (Q99685 1-303): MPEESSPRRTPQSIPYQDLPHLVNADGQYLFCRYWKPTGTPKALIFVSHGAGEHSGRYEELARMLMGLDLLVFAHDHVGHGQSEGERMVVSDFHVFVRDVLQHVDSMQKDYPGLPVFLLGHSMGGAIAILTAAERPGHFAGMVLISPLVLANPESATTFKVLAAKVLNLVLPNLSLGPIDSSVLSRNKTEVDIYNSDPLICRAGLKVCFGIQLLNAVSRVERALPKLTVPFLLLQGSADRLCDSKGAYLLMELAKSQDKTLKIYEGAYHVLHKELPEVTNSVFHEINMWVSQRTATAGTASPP
Test: Human MAGL inhibition assay (Cayman's assay kit)
The threshold is 0.03 µM. Values of IC50 beneath it are tagged class 1; values meeting or exceeding it are tagged class 0.

# TODO verify IC50 < 0.03 µM strictly for this compound: O=C1CC(c2nc3ccccc3o2)CN1c1ccc(F)c(Cl)c1 (stereo not shown) [Compound 16]
class 0

Hello, is IC50 of the following compound strictly smaller than 0.03 µM? O=C1CC(c2nc3ccccc3o2)CN1c1ccc(O)cc1 (stereo not shown) [Compound 17]
class 0

Take the compound Cc1ccc(N2CC(c3nc4ccccc4o3)CC2=O)cc1 (stereo not shown) [Compound 14] and say whether its IC50 is less than 0.03 µM.
class 0

Threshold test, IC50 < 0.03 µM: O=C1CC(c2nc3ccccc3o2)CN1Cc1ccccc1 (stereo not shown) [Compound 11]
class 0

State whether 0.03 µM exceeds IC50 recorded for O=C1CC(c2nc3ccccc3o2)CN1c1ccc(Cl)cc1 (stereo not shown) [Compound 15] .
class 0

Below 0.03 µM on IC50? Entry NS(=O)(=O)c1ccc(N2CC(c3nc4ccccc4o3)CC2=O)cc1 (stereo not shown) [Compound 20]
class 1

Here's an entry: COc1ccc(N2CC(c3nc4ccccc4o3)CC2=O)cc1 (stereo not shown) [Compound 18] . Is its IC50 below 0.03 µM?
class 0

Below 0.03 µM on IC50? Entry O=C1CC(c2nc3ccccc3o2)CN1c1ccccc1 (stereo not shown) [Compound 12]
class 0

IC50 strictly < 0.03 µM for this compound? Cc1ccccc1N1CC(c2nc3ccccc3o2)CC1=O (stereo not shown) [Compound 13]
class 0

# TODO verify IC50 < 0.03 µM strictly for this compound: O=C1CC(c2nc3ccccc3o2)CN1c1ccc([N+](=O)[O-])cc1 (stereo not shown) [Compound 19]
class 1

These measurements were taken from paper PMC8074287.
